Target: NRAS G12C (Homo sapiens (Human), UniProt P01111+P62937, G12C)
Sequence (P01111 whole entry G12C): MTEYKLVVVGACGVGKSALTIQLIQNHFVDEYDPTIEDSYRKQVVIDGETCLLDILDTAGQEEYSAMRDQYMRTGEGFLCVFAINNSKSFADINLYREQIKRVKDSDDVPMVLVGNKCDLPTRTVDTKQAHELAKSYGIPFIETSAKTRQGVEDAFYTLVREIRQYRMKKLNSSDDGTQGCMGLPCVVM
Sequence (P62937 whole entry): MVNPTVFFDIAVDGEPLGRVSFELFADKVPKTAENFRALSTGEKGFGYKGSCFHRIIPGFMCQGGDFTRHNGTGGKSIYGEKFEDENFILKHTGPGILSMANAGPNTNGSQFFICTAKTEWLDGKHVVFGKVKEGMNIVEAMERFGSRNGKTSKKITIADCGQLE
Experiment: Ras-Raf (BRAF RBD) disruption / FRET / MOA assay, NRAS G12C
Assay type: biochemical
Conditions: read-out: IC50* NRAS G12C FRET data
Form field: IC50 (one value per entry).

compound: CCn1c(-c2cncnc2)c2c3cc(ccc31)-c1csc(n1)C[C@H](NC(=O)[C@H](C(C)C)N(C)C(=O)[C@H]1CCN(C(=O)C#CCN3CCOCC3)C1)C(=O)N1CCC[C@H](N1)C(=O)OCC(C)(C)C2
value_measured: 0.1 to 1 µM
//
compound: CO[C@@H](C)c1ncccc1-c1c2c3cc(ccc3n1CC(F)(F)F)-c1csc(n1)C[C@H](NC(=O)CCOC1CN(C(=O)C#CC(C)(C)N(C)C)C1)C(=O)N1CCC[C@H](N1)C(=O)OCC(C)(C)C2 (atropisomer, axis not shown)
value_measured: < 0.01 µM
//
compound: C=CC(=O)N1CC[C@H](C(=O)N(C)[C@H](C(=O)N[C@H]2Cc3cccc(c3)-c3ccc4c(c3)c(c(-c3cccnc3[C@H](C)OC)n4CC(F)(F)F)CC(C)(C)COC(=O)[C@@H]3CCCN(N3)C2=O)C(C)C)C1 (atropisomer, axis not shown)
value_measured: 0.01 to 0.1 µM
//
compound: CCn1c(-c2cccnc2[C@H](C)OC)c2c3cc(ccc31)-c1nc(nn1C)C[C@H](NC(=O)[C@@H](COC1CN(C(=O)C#CC(C)(C)N(C)C)C1)C(C)C)C(=O)N1CCC[C@H](N1)C(=O)OCC(C)(C)C2 (atropisomer, axis not shown)
value_measured: 0.01 to 0.1 µM
//
compound: CCn1c(-c2cccnc2[C@H](C)OC)c2c3cc(ccc31)-c1cc(O)cc(c1)C[C@H](NC(=O)[C@H](C(C)C)N(C)C(=O)c1ncc(NC(=O)/C=C/CN(C)C)s1)C(=O)N1CCC[C@H](N1)C(=O)OCC(C)(C)C2 (atropisomer, axis not shown)
value_measured: 0.1 to 1 µM
//
compound: C=CC(=O)N1CCO[C@H]2CN(C(=O)N(C)[C@H](C(=O)N[C@H]3Cc4nc(cs4)-c4ccc5c(c4)c(c(-c4cccnc4[C@H](C)OC)n5CC)CC(C)(C)COC(=O)[C@@H]4CCCN(N4)C3=O)C(C)C)C[C@@H]21 (atropisomer, axis not shown)
value_measured: < 0.01 µM

IC50 recorded for this compound, CCn1c(-c2cccnc2[C@H](C)OC)c2c3cc(ccc31)C1=CCCN(C1)C[C@H](NC(=O)[C@H](C(C)C)N(C)C(=O)C1(F)CCN(C(=O)C#CC(C)(C)N(C)C)CC1)C(=O)N1CCC[C@H](N1)C(=O)OCC(C)(C)C2 (atropisomer, axis not shown) , is < 0.01 µM

IC50 recorded for this compound, CCn1c(-c2cccnc2[C@H](C)OC)c2c3cc(ccc31)-c1csc(n1)C[C@H](NC(=O)[C@H](C(C)C)N(C)C(=O)[C@H]1CCN(C(=O)C#CC(C)(C)N(C)C)C1)C(=O)N1CCC[C@H](N1)C(=O)OCC(C)(C)C2 (atropisomer, axis not shown) , is 0.01 to 0.1 µM

----------
Molecular target: KRAS WT (Homo sapiens (Human), UniProt P01116+P62937)
Sequence (P01116-2 other isoform, or with tags, fused parts or gaps): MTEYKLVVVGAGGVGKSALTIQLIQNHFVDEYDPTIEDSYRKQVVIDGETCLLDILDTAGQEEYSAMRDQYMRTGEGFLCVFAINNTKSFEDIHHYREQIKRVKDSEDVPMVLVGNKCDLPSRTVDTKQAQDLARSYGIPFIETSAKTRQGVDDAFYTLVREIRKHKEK
Sequence (P62937 whole entry): as the sequence (P62937 whole entry) above
Experiment: Ras-Raf (BRAF RBD) disruption / FRET / MOA assay, KRAS WT
Format: biochemical
Details: read-out: IC50* KRAS WT FRET data
measurement_type: IC50

compound: C=CC(=O)N1CC[C@H](C(=O)N(C)[C@H](C(=O)N[C@H]2Cc3cc(O)cc(c3)-c3ccc4c(c3)c(c(-c3cccnc3[C@@H]3CCCO3)n4CC)CC(C)(C)COC(=O)[C@@H]3CCCN(N3)C2=O)C(C)C)C1 (atropisomer, axis not shown)
assayed_target: KRAS WT (Homo sapiens (Human), UniProt P01116+P62937)
IC50: 0.1 to 1 µM
//
compound: C=CC(=O)N1CC[C@H](C(=O)N(C)[C@H](C(=O)N[C@H]2Cc3cc(O)cc(c3)-c3ccc4c(c3)c(c(-c3c(C)cccc3C)n4CC)CC(C)(C)COC(=O)[C@@H]3CCCN(N3)C2=O)C(C)C)C1
assayed_target: KRAS WT (Homo sapiens (Human), UniProt P01116+P62937)
IC50: > 10 µM
//
compound: C=CC(=O)C1C[C@@H](C(=O)N(C)[C@H](C(=O)N[C@H]2Cc3cc(O)cc(c3)-c3ccc4c(n3)c(c(-c3ccccc3CCOC)n4CC)CC(C)(C)COC(=O)[C@@H]3CCCN(N3)C2=O)C(C)C)CN1 (stereo partly shown)
assayed_target: KRAS WT (Homo sapiens (Human), UniProt P01116+P62937)
IC50: > 10 µM

The record that follows has no IC50 shown yet.
IC50 recorded for this compound, `C=CC(=O)N1CC[C@H](C(=O)N(C)[C@H](C(=O)N[C@H]2CN(C)C(=O)Cc3ccc4c(c3)c(c(-c3cccnc3COC)n4CC)CC(C)(C)COC(=O)[C@@H]3CCCN(N3)C2=O)C(C)C)C1` , is > 10 µM
